Would you mind telling me the reported IC50 neutralization of each entry?
target: HIV-1 92RW020 envelope glycoprotein (Env) (HIV-1); assay: cell-based or functional assay
Answers are plain numbers, in mg/L.

Recorded IC50 neutralization, per entry:
binder	quantity	units text	reported result
PGT-136 (antibody, V domains shown) VH: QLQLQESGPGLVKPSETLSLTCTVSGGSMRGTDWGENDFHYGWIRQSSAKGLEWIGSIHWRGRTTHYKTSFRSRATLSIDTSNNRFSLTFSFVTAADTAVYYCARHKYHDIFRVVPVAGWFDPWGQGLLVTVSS VL: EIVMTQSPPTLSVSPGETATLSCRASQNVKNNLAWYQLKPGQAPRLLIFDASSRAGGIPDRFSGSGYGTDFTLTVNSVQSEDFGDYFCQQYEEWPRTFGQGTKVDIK	IC50 neutralization	mg/L	0.738
PGT-130 (antibody, V domains shown) VH: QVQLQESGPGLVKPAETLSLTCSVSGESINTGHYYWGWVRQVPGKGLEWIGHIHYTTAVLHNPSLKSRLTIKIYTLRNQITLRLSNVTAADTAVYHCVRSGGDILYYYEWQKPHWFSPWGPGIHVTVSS VL: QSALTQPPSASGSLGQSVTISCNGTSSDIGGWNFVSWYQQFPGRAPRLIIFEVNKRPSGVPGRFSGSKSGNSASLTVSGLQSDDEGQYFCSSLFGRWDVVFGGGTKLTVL	IC50 neutralization	mg/L	0.014

Now let's try a different one.
Q: For PGT-126 (antibody, V domains shown) VH: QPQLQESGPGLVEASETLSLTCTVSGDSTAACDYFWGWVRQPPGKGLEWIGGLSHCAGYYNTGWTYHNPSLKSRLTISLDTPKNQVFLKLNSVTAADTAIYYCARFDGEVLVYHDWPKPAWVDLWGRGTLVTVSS VL: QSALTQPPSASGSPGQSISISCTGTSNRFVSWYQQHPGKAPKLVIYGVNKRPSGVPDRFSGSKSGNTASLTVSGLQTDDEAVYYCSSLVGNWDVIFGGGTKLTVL , what is its reported IC50 neutralization?
A: 0.0046
